TESTED SYSTEM: Acetylcholinesterase (AChE, EC 3.1.1.7, from human erythrocyte) (Homo sapiens)
Construct: Acetylcholinesterase (AChE, EC 3.1.1.7, from human erythrocyte); purchased Sigma-Aldrich (Germany); host or cells: human erythrocytes
Sequence (P22303 other isoform, or with tags, fused parts or gaps): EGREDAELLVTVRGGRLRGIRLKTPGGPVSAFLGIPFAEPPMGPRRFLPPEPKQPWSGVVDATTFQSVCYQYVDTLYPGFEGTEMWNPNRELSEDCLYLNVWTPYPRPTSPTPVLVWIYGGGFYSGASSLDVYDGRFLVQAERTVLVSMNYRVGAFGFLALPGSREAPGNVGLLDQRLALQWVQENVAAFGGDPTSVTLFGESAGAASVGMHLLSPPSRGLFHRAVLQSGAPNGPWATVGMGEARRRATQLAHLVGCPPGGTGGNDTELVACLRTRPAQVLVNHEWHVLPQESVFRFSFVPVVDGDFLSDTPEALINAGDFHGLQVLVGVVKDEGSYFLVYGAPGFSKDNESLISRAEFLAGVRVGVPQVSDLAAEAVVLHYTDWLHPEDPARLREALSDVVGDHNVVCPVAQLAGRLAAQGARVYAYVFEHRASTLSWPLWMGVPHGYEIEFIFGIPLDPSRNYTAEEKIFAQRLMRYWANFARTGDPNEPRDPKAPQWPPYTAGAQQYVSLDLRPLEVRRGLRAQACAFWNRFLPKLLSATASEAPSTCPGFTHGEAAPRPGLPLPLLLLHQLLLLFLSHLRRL
TEST DESCRIPTION: biochemical
Type: biochemical
Experimental: Acetylcholinesterase (AChE, EC 3.1.1.7, from human erythrocyte), butyrylcholinesterase (BChE, EC 3.1.1.8, from equine serum), carboxylesterase (CaE, EC 3.1.1.1, from porcine liver), acetylthiocholine iodide (ATCh), butylthiocholine iodide (BTCh), 5,5´-dithiobis-(2-nitrobenzoic acid) (DTNB), 4-nitrophenyl acetate (4-NPA), were purchased from Sigma-Aldrich (Germany). AChE and BChE activities were measured by the method of Ellman and coworkers as described earlier. […]
PROPERTY: pIC50
Reminder that pIC50 means the negative base-10 logarithm of the concentration expressed in mol/L.

**Q:** // query pIC50 value for entry Cc1ccc2c(c1)c1c(n2CCc2ccc(C)nc2)CCN(C)C1 [dimebon, reference compound]
**A:** 4.44

---

Listed below: IC50 values for each entry.
TESTED SYSTEM: carboxylesterase (CaE, EC 3.1.1.1, from porcine liver) (Sus scrofa, UniProt Q29550)
Sequence (Q29550 19-566): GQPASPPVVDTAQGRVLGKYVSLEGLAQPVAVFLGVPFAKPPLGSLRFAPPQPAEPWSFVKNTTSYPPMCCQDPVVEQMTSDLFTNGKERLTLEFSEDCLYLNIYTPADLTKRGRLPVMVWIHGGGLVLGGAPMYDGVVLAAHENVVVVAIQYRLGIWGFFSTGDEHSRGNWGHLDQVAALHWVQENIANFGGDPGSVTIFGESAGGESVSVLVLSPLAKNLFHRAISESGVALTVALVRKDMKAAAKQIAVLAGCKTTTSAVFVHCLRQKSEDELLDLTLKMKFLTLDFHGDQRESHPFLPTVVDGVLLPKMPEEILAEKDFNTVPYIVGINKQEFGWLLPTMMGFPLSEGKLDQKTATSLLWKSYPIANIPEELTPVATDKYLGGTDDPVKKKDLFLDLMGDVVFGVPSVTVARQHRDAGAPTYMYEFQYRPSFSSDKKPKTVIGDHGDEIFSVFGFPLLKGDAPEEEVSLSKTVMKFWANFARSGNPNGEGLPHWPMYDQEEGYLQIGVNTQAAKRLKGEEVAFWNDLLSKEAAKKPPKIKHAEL
TEST DESCRIPTION: In vitro CaE inhibition (4-nitrophenyl acetate hydrolysis)
Type: biochemical
STATED CONDITIONS: pH 8.0, 25 °C, 10 min preincubation, read-out: IC50 (μM) ± SEM CaE

Some molecules with recorded IC50:
MOLECULE | IC50
O=[N+]([O-])c1ccc(OP(=O)(O)Oc2ccc([N+](=O)[O-])cc2)cc1 [BNPP, Bis-4-nitrophenyl phosphate, reference compound] | 1.8 µM
Cc1ccc2c(c1)c1c(n2CCC(=O)N2c3ccccc3Sc3ccccc32)CCN(C)C1 | > 200 µM
CN1CCc2c(c3cc(F)ccc3n2CCC(=O)N2c3ccccc3Sc3ccccc32)C1 | > 200 µM
CCN1CCc2c(c3ccccc3n2CCC(=O)N2c3ccccc3Sc3ccccc32)C1 | > 200 µM

**Q:** Given the entry CC(C)c1ccc2c(c1)c1c(n2CCC(=O)N2c3ccccc3Sc3ccccc32)CCN(C)C1 , report its measured IC50.
**A:** 120 µM

**Q:** Subsequent entry: CCN1CCc2c(c3cc(C)ccc3n2CCC(=O)N2c3ccccc3Sc3ccccc32)C1
**A:** > 200 µM

Just for reference, paper PMC4642525 is where these values come from.
